SUBJECT OF TEST: KDR (human) (UniProt P35968)
Sequence (P35968 whole entry, looked up): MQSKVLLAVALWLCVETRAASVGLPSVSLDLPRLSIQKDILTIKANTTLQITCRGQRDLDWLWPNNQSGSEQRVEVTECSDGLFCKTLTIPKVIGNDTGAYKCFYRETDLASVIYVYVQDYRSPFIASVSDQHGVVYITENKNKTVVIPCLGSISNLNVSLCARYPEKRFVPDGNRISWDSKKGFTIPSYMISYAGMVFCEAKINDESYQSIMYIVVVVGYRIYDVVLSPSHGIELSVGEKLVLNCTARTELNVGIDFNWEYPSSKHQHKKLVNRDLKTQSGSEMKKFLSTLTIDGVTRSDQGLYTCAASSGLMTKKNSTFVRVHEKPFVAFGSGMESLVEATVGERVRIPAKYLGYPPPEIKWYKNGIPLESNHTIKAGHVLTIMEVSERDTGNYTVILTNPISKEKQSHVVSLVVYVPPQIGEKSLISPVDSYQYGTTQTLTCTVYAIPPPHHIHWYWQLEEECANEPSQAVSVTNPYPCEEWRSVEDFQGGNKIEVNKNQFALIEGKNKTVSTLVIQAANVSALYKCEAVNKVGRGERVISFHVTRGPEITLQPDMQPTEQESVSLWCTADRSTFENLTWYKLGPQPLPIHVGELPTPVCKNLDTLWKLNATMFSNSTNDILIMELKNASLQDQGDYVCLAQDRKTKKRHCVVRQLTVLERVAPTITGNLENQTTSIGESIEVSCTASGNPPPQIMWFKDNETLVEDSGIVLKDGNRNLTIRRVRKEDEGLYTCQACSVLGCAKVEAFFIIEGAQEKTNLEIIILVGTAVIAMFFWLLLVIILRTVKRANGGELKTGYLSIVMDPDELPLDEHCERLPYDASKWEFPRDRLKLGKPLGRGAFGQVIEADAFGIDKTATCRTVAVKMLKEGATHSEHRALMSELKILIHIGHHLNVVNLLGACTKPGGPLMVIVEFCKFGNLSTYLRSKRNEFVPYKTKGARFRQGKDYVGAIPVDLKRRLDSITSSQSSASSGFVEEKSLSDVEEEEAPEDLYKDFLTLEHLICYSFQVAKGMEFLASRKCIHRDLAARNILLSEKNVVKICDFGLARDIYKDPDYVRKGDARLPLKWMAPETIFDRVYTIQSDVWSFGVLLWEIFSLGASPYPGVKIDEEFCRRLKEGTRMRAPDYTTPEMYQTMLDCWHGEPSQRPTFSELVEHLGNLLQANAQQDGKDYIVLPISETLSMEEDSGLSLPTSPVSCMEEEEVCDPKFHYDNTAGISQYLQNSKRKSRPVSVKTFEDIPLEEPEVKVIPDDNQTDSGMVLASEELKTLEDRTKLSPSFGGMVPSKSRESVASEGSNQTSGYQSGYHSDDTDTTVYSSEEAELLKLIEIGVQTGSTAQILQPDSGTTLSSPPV
TEST DESCRIPTION: radiometric filter-binding kinase assay, Kinase HotSpot
RUN PARAMETERS: compound 0.5 µM; ATP 10 µM
QUANTITY NAME: residual activity (%)
Hi! Could you send only the number? It should be in %, unit omitted.

| SMILES STRUCTURE | SUBJECT OF TEST | UNIT ABBREV | residual activity |
| --- | --- | --- | --- |
| CN(C)CCCn1cc(C2=C(c3c[nH]c4ccccc34)C(=O)NC2=O)c2ccccc21 | KDR (human) (UniProt P35968) | % | 65.5 |
| Cc1nc(-c2ccccc2)c(-c2ccncc2)o1 | KDR (human) (UniProt P35968) | % | 85.2 |
| COc1cc2ncnc(Nc3ccc(Oc4ccccc4)cc3)c2cc1OC | KDR (human) (UniProt P35968) | % | 92.1 |
| COc1ccc2c(c1)/C(=C/c1cnc[nH]1)C(O)=N2 | KDR (human) (UniProt P35968) | % | 78.7 |

query: For N#Cc1c[nH]c2c[nH]/c(=N\Cc3cccnc3)cc2/c1=N\c1ccc(F)c(Cl)c1 , write its residual activity.
result: 96.3

query: For Cc1cccc(-c2nc(C(C)(C)C)[nH]c2-c2ccc3c(c2)OCO3)n1 , write its residual activity.
result: 94.7
